assay: NCI Yeast Anticancer Drug Screen. Data for the sgs1 mgt1 strain (AID 161);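 also: 0% = growth of cultures given vehicle only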; details: S. cerevisiae sgs1 mgt1 strain, active compounds read high; at 50.0 µM unless noted
Compounds without any hit were thinned out: in the full panel of roughly 79,000, 15% have a hit.

# compound, growth inhibition, %
measured = [
    ("Cc1[nH]c2c(ccc3c2ccc2c(=O)c(C)c(C)[nH]c23)c(=O)c1C", -4.35),
    ("C=CCn1c(=O)c2ccccc2[n+]2c(C)c(C(=O)OCC)sc12", -2.65),
    ("CC(=O)CCOC(=O)c1cc([N+](=O)[O-])cc([N+](=O)[O-])c1", 14.4),
    ("CC(=C/c1ccccc1)/C=C1/NC(=S)NC1=O", -16.4),
    ("CC1=CCCC2C(C=O)(C1)CC(C)C2(CO)CC/C(=C/CO)CO (stereo unspecified)", -5.5),
    ("ClCCN1CCOC1=Nc1ccc2c(c1)CCCC2", 2.6),
    ("CN(C)c1cccc2ccccc12", 20.7),
    ("O=C1CN(c2cccc(C(F)(F)F)c2)C(=O)CN1/N=C/c1cccnc1", 10.8),
    ("CCCCN(CCCC)CC(=O)NC(=O)c1ccccc1", 3.35),
    ("Clc1ccc(/C=N\\OCc2ccc(Cl)c(Cl)c2)cc1Cl", 2.1),
    ("C=C(C)[C@H]1CC(=O)[C@@]2(C)C[C@H]3O[C@]3(C)CC/C=C(\\C)CC[C@H]12", 33.2),
]

* * *

experiment: NCI Yeast Anticancer Drug Screen. Data for the mlh1 rad18 strain (AID 175); settings: S. cerevisiae mlh1 rad18 strain growth inhibition, active compounds read high; at 50.0 µM unless noted
About 79,000 compounds went through this panel and 15% of them were active in at least one assay; those are over-represented in the sample as a whole.
Item-by-item account of growth inhibition

# compound, growth inhibition [%]
measured = [
    ("CC(=O)N1C(=O)CC23c4cccc([N+](=O)[O-])c4C(=O)N2CCCN13 (stereo unspecified)", 17.4),
    ("S=C(NC1CCCCC1)SSSSC(=S)NC1CCCCC1", 20.2),
    ("CC(=O)Nc1cccc(Br)c1", -19.1),
    ("C(=C/c1ccccc1)/c1ccccc1", -2.15),
    ("O=NN1C(c2ccccc2)CNC(=O)CC1c1ccccc1 (stereo unspecified)", -18.2),
    ("CN(C)N1C(=O)S/C(=C\\c2ccc([N+](=O)[O-])cc2)C1=O", -16.2),
    ("c1ccc(-c2cn(-c3ccccc3)nn2)cc1", 0.6),
    ("S=C1NCN2CCN(CC2)CNC(=S)C(=S)NCN2CCN(CC2)CNC1=S", 57.6),
    ("CC(=O)N(C(C)=O)N1C(=O)CSC1=S", -7.2),
    ("COc1ccc2c(c1)[nH]c1c3ccc(OC)cc3oc(=O)c21", -33.9),
    ("CC(/C(=N/O)c1ccccc1)N1C(=O)c2ccccc2C1=O (stereo unspecified)", 5.7),
    ("C=CCOC(=O)COc1ccc(Cl)cc1", 0.55),
    ("CCOc1ccccc1/C=C1\\N=C(c2ccc([N+](=O)[O-])cc2)OC1=O", 31),
    ("Cc1cc(=O)oc2nn(CCO)c(C)c12", -13.7),
    ("O=C(Nc1ccc(S(=O)(=O)c2ccc(F)cc2)cc1)OC1CCCCC1", 18.4),
    ("Cc1nc(CO)c(-c2ccc([N+](=O)[O-])cc2)o1", -1.5),
    ("CN(C)C(=S)Oc1ccc(-c2c(-c3ccccc3)oc3ccc4ccccc4c23)cc1", 9.4),
    ("O=C(O)CCCCC1CCCCC1", 43.1),
    ("CC(O)C(=O)N(CCO)c1ccccc1 (stereo unspecified)", -21.4),
    ("CN(C)/N=C(\\CBr)c1ccc([N+](=O)[O-])cc1", 5.4),
    ("Cc1cccc(C(=O)NNC(=O)C(=O)NNC(=O)c2cccc(C)c2)c1", 26.9),
    ("O=C(OCCCl)c1ccc(Cl)c(Cl)c1", -19.9),
    ("C[N+]1(CCN=C=NC2CCCCC2)CCOCC1", 14.4),
    ("O=C1NC(=S)N/C1=C\\c1ccc(Cl)cc1", -39.7),
    ("C=CCC(O)c1ccccc1OC (stereo unspecified)", 7.95),
    ("CN(CCOC(=O)Nc1ccccc1)N=O", -3),
]

* * *

test: NCI Yeast Anticancer Drug Screen. Data for the rad50 strain (AID 155);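 also: 0% = growth of vehicle-only cultures of the same strain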; conditions: S. cerevisiae rad50 strain growth inhibition, active compounds read high; at 50.0 µM unless noted
This is part of a sample that, as a whole, favours compounds with a hit. Of some 79,000 tested, about 15% had one in any assay.
Item-by-item account of growth inhibition

# compound, growth inhibition (%)
data = [
    ("CCC(O)(c1ccccc1)C(O)(CC)c1ccccc1 (configuration not stated)", 15.8),
    ("CC1=CC(C)C(C(=O)OCC(C)C)C(C(=O)OCC(C)C)C1 (configuration not stated)", -13.2),
    ("COc1cccc(N(CN2CC=CC2=O)C(C)=O)c1", -1.65),
    ("O=C(O)C(Cc1cccs1)C(=O)O", -12.8),
    ("CC1CCCN(CCC(=O)c2ccc(O)cc2)C1 (configuration not stated)", 38.2),
    ("CC1(C)OCC[C@@H]1[Si](C)(C)C", 17.6),
    ("COc1ccc(C(C)c2cc(N=NC(N)=O)c(OC)cc2O)cc1 (configuration not stated)", -2.7),
    ("COc1ccc(-c2cc(=O)c3c(O)c(O)c(OC)cc3o2)cc1O", -5.15),
    ("COc1ccc(OC)c(NC(=O)CCCC(=O)C(C#N)c2ccc(CC#N)cc2)c1 (configuration not stated)", -15.8),
    ("CN(C)C(=NN=C(N(C)C)N(C)C)N(C)C", 12.2),
    ("C1=NC(c2ccccc2)=CN(C2CCCCCCCCCCC2)C1(c1ccccc1)C1CCCCCCCCCCC1 (configuration not stated)", -18.2),
    ("c1ccc2nc(CCC3CCCCN3)ccc2c1 (configuration not stated)", 7.2),
]

* * *

assay: NCI Yeast Anticancer Drug Screen. Data for the sgs1 mgt1 strain (AID 161);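 also: 0% = growth of cultures given vehicle only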; settings: S. cerevisiae sgs1 mgt1 strain, active compounds read high; at 50.0 µM unless noted
The panel holds about 79,000 compounds, 15% with a hit somewhere; the sample as a whole holds those more often.
readout_name: growth inhibition (%)

# structure_string, readout_name, observed
records = [
    ("O=c1[nH]c2[nH]c(=S)[nH]c(=O)c2[nH]1", "growth inhibition", -8.5),
    ("[CH3][Sn]([CH3])([S]P(=S)(c1ccccc1)c1ccccc1)[S]P(=S)(c1ccccc1)c1ccccc1", "growth inhibition", 18.7),
    ("c1ccc(-n2ncn[n+]2-c2ccccc2)cc1", "growth inhibition", -0.3),
    ("S=C(NCc1cccc(Cl)c1)Nc1ccccc1", "growth inhibition", 14.2),
    ("COc1ccc(-c2sc(/N=C/c3ccc(N(C)CCC#N)cc3)c(C#N)c2C)cc1OC", "growth inhibition", 28.1),
    ("COC(=O)CCCCC(=O)OC", "growth inhibition", 15.1),
]

* * *

Item-by-item account of growth inhibition
experiment: NCI Yeast Anticancer Drug Screen. Data for the mec2-1 strain (AID 157); settings: S. cerevisiae mec2-1 strain, active compounds read high; at 50.0 µM unless noted
This is part of a sample that, as a whole, favours compounds with a hit. Of some 79,000 tested, about 15% had one in any assay. Activity calls are given as the source filed them. Cut-off read from the data, not from the text of the source: active = growth inhibition above about 70%; inactive = the rest.
readout_name: growth inhibition

# compound, observed
records = [
    ("N#Cc1[nH]c(=O)n(-c2ccc([N+](=O)[O-])cc2)c1N", "-59.8% (inactive)"),
    ("Cc1ccc(S(=O)(=O)OC2CSS(=O)CC2OS(=O)(=O)c2ccc(C)cc2)cc1 (stereo unspecified)", "-3.15% (inactive)"),
    ("NNC(=O)CCn1[nH]c(=O)c(Cl)c(Cl)c1=O", "11.8% (inactive)"),
    ("CNc1ccc(C=C2C=CC=C2)cc1", "1.7% (inactive)"),
    ("O=C1CCCNC(=O)N1", "20.1% (inactive)"),
    ("O=C1c2ccccc2NC(O)c2cccn21 (stereo unspecified)", "0.2% (inactive)"),
    ("Nc1ccccc1S(=O)(=O)Nc1c(N)nc(SCC(=O)O)[nH]c1=O", "-21.9% (inactive)"),
    ("CCOC(=O)NC(=O)c1cn(CCCCCCCCCCC(=O)N2CCN(CCn3cc(C(=O)NC(=O)OCC)c(=O)[nH]c3=O)CC2)c(=O)[nH]c1=O", "18.4% (inactive)"),
    ("COC(=O)/C(=C(\\C)NC(C)=O)c1c(C(=O)OC)[nH]c2ccccc12", "-12.5% (inactive)"),
    ("O=C1c2ccc3c4ccccc4n(-c4ccccc4)c3c2C(=O)N1c1ccc(Cl)cc1", "-2.95% (inactive)"),
    ("CC1CCCCN1P(c1ccccc1)N1CCCCC1C (stereo unspecified)", "16.9% (inactive)"),
]
